Entries and their percent of parent
B1: PLEKHM1‐LIR WT peptide (EDEWVNVQY), biotinylated [modified: biotin; biotin] [not stated] / 6xHis‐tagged GABARAP‐L1 [human] (parent complex)
chain 1: EDEWVNVQY
chain 2: not shown

variants of: B1; assay: peptide array (biotinylated LIR peptide, 6xHis-mATG8, absorbance); n = 3; read off a plot

{"VARIANT_IDENTIFIER": "chain 1 W4A, chain 1 V7A", "ENDPOINT_RESULT": "~7 % Mutant LIR/WT"}
{"VARIANT_IDENTIFIER": "chain 1 V7I", "ENDPOINT_RESULT": "~95 % Mutant LIR/WT"}
{"VARIANT_IDENTIFIER": "chain 1 W4Y", "ENDPOINT_RESULT": "~55 % Mutant LIR/WT"}
{"VARIANT_IDENTIFIER": "chain 1 V7L", "ENDPOINT_RESULT": "~110 % Mutant LIR/WT"}

Please supply the value of reported percent of parent for the item chain 1 W4F
~60 % Mutant LIR/WT
